tested on: CP185; assay: qHTS profiling for inhibitors of Plasmodium falciparum proliferation (AID 504749); also: nearly all actives have a fitted effect of over 60% in size; settings: P. falciparum in erythrocytes, SYBR Green DNA, 72 h; series mostly up to 28.7 µM
Inconclusive results are not listed. Active and inactive are the calls of the source. Calls follow the shape of the dose curve; as a rule, active = well fitted inhibition curve with a large enough effect; inconclusive = small, poorly fitted or top-dose-only effect; inactive = flat fitted curve, though single readings scatter.
Write down the outcome that applies. Available outcomes: active, inactive

Please review the entries below; each comes with its answer.
MOLECULE: C=CCN1CCCC1CNC(=O)c1cc(S(N)(=O)=O)cc(OC)c1OC (stereo not drawn)
GROUP LABEL: inactive

MOLECULE: FC(F)(F)COCC(F)(F)F
GROUP LABEL: inactive

MOLECULE: CC/C=C\C/C=C\C/C=C\C/C=C\C/C=C\C/C=C\CCC(=O)O
GROUP LABEL: inactive

MOLECULE: CC(C)(CO)[C@@H](O)C(=O)NCCC(=O)NCCSSCCNC(=O)CCNC(=O)[C@H](O)C(C)(C)CO
GROUP LABEL: inactive

MOLECULE: CC(=O)Nc1ccc(NC(=S)NC(=O)c2ccc(C(C)(C)C)cc2)cc1
GROUP LABEL: inactive

Challenge: Please indicate how the test categorized `CN1C(=O)C[C@@H](C(=O)N[C@@H](Cc2cnc[nH]2)C(=O)N2CCC[C@H]2C(N)=O)NC1=O` .
Response given: inactive

Challenge: Please indicate how the test categorized `O=P(O)(O)O` .
Response given: inactive

Challenge: Please indicate how the test categorized `COC1=C(OC)C(=O)C(C/C=C(\C)CC/C=C(\C)CC/C=C(\C)CC/C=C(\C)CC/C=C(\C)CC/C=C(\C)CC/C=C(\C)CC/C=C(\C)CC/C=C(\C)CCC=C(C)C)=C(C)C1=O` .
Response given: inactive

Challenge: Please indicate how the test categorized `CC(C)CCC[C@@H](C)[C@H]1CC[C@H]2[C@@H]3CC[C@@H]4C[C@H](O)CC[C@]4(C)[C@H]3CC[C@]12C` .
Response given: inactive

Challenge: Please indicate how the test categorized `N=C(N)n1cccn1` .
Response given: inactive

Challenge: Please indicate how the test categorized `CCCCCCCCCCCCOCCCN` .
Response given: inactive

Challenge: Please indicate how the test categorized CC1C(=O)CC2C3(C)CCC2(C(C)C(=O)O)C(=O)C13 (stereo not drawn) .
Response given: inactive

Challenge: Please indicate how the test categorized `OCCOCCOCCO` .
Response given: inactive

Challenge: Please indicate how the test categorized `CCN(CC)C(=O)c1cccnc1` .
Response given: inactive

Challenge: Please indicate how the test categorized CCC(C(=O)NC(N)=O)c1ccccc1 (stereo not drawn) .
Response given: inactive

Challenge: Please indicate how the test categorized C=C(C)C1CC=C(C)CC1 (stereo not drawn) .
Response given: inactive

Challenge: Please indicate how the test categorized `Cc1nc(NS(=O)(=O)c2ccc(N)cc2)nc(C)c1Br` .
Response given: inactive

Challenge: Please indicate how the test categorized CC(=O)N[C@@H]1C(O[C@H]2O[C@H](C(=O)O)C(O)[C@H](O)[C@H]2O)[C@H](O)[C@@H](CO)O[C@H]1O[C@@H]1C(C(=O)O)O[C@@H](O[C@H]2[C@H](O)[C@@H](CO)OC(O)[C@@H]2NC(C)=O)[C@H](O)[C@H]1O (stereo partly drawn) .
Response given: inactive

Challenge: Please indicate how the test categorized `Cc1ncc(C[n+]2csc(CCO)c2C)c(N)n1` .
Response given: inactive

This collection of values is drawn from PubChem BioAssay (NCATS).
